- Test system: MOLT-4 leukemia
- PROTOCOL_DETAILS: NCI-60 one-dose screen, 48 h
- CONDITIONS: 10 µM unless noted
- Description: Growth inhibition of the MOLT-4 human tumor cell line is measured as a screen for anti-cancer activity. Cells are grown in 96 well plates and exposed to the test compound for 48 hours. Compounds are tested at a single concentration, which is 10^-5 M for most compounds. The reported endpoint is percent growth (GI% or GIPRCNT), where numbers from 0 - 100% represent growth inhibition, and numbers from -100% - 0 represent cell death. For example, a value of 40 represents 60% growth inhibition. […]
Compounds without any hit were thinned out: in the full panel of roughly 83,000, 20% have a hit. The source made the active and inactive calls. The calls were made as follows: active = growth percent below 10; inactive = the rest.
Choose the fitting class; nothing outside active, inactive is accepted.

Answered cases to consult:
compound=CN(C)CCCNc1nn2c(=O)c3ccccc3nc2c2ccccc12 label=active
compound="CC1C(=O)NC2=Nc3ccccc3C(=O)NN21 (stereo not drawn)" label=inactive
compound=CN(C)CCC(=O)Nc1ccc(-n2cc(-c3cccc(NC(=S)Nc4cccc(-c5cn(-c6ccc(NC(=O)CCN(C)C)cc6)nn5)c4)c3)nn2)cc1 label=inactive

What is the recorded call for this compound in the test? Cn1c(N2N=C(c3ccc(Cl)cc3)CC2c2ccccc2)nc(-c2ccccc2)c(C#N)c1=O (stereo not drawn)
inactive

Call for entry `COc1ccc(NC(=O)c2ccc(-c3ccccc3)cc2)c(C(N)=O)c1` :
inactive

Recorded test call requested for OC(c1ccccc1)C(NCc1ccccc1)c1ccccc1 (stereo not drawn)
inactive

State the result this test recorded for `Cn1cnc([N+](=O)[O-])c1Sc1nc(N)nc2nc[nH]c12` .
inactive

What outcome does the record of this test show for `Nc1nc(Nc2ccccc2SSc2ccccc2Nc2nc(N)nc(-c3cccc(Cl)c3)n2)nc(-c2cccc(Cl)c2)n1` ?
inactive

Call for entry C#C[C@]1(O)CCC2C3CCc4cc(O)ccc4C3CC[C@@]21C (stereo partly drawn) :
inactive

What classification did C[C@H]1O[C@@H](O[C@H]2[C@@H](O)C[C@H](O[C@H]3[C@@H](O)C[C@H](O[C@H]4CC[C@]5(C)C6C[C@@H](O)[C@]7(C)[C@@H](C8=CC(=O)OC8)CC[C@]7(O)C6CC[C@@H]5C4)O[C@@H]3C)O[C@@H]2C)C[C@H](O)[C@@H]1O (stereo partly drawn) end up with in this test?
active

Recorded test call requested for `CCCCN=C(N)c1ccc(OCCSCCOc2ccc(C(N)=NCCCC)cc2)cc1`
inactive

Fill in: this test's call for `COc1ccc(/C=C2/SC(=Nc3c(C)nn(-c4ccccc4)c3N)NC2=O)cc1` is ___
inactive

Call for entry `COc1ccc2c(c1)sc1nc(-c3ccc(N(C)C)cc3)cn12` :
inactive

Check the results log: what was the call for `COc1ccc(-c2cc(-c3cccnc3)nc3sc(C(=O)Nc4ccccc4)c(N)c23)cc1OC` ?
inactive

Hi team, can someone confirm the assay call for `COc1ccc(-n2cnc3cc(C(=O)N4CCCCC4)ccc32)cc1` ?
inactive

Hi team, can someone confirm the assay call for `CCOC(=O)/C=C1/SC(=Nc2ccc(C#N)cc2)N(Cc2ccco2)C1=O` ?
active

Which outcome was assigned to `O=C(CSc1nnc(-c2cc(-c3ccccc3)nc3ccccc23)o1)c1ccc(Br)cc1` in this test?
inactive

Could you kindly confirm the outcome this assay logged for `O=C(NCCCl)NCCN1c2nc3ccccc3cc2Sc2cc3ccccc3nc21` ?
active

Assay outcome for COc1ccc(C2=NN(C=O)C(c3cccc(Nc4ccnc5cc(Cl)ccc45)c3)C2)cc1 (stereo not drawn) : what was it?
active

Per the assay record, what outcome was assigned to `COc1ccc2c(c1)CC[C@@H]1[C@@H]2CC[C@]2(C)[C@@H](O)C(=O)C[C@@H]12` ?
inactive

###

- Test system: RXF 393 renal
- PROTOCOL_DETAILS: NCI-60 one-dose screen, 48 h
- CONDITIONS: 10 µM unless noted
This is part of a sample that, as a whole, favours compounds with a hit. Of some 83,000 tested, about 20% had one in any assay. Calls of active or inactive are those of the source. How the source made its calls: active means growth percent below 10; inactive means the rest.
API: response.call in yes (1) for active, no (0) for inactive

Below are worked cases with known answers.
compound=CC[n+]1c(/C=C/c2ccc(N3CCCC3)cc2)cccc1/C=C/c1ccc(N2CCCC2)cc1 label="yes (1)"
compound=O=C(COc1ccc(/C=C2\Cc3ccccc3C2=O)cc1)c1ccc(Cl)cc1 label="no (0)"
compound="O=CN1N=C(c2ccc(Nc3ccnc4cc(Cl)ccc34)cc2)CC1c1ccc(Cl)cc1 (stereo unspecified)" label="no (0)"

Each compound tested received a call. Report the one for `CC(C)CNc1nc(N=[N+]=[N-])nc(NCC(C)C)n1` .
no (0)

# outcome recorded in this test, key = `N#Cc1ccc(-c2csc(Nc3ccc4nc5n(c(=O)c4c3)CCC5)n2)cc1`
no (0)

Write down the call the test reported for this compound. Item: `COc1ccc(/C=C2\CCc3ccccc3C2=O)cc1`
no (0)

Tell me the recorded outcome of this test for `N#Cc1c(-c2ccccc2)cc(-c2ccccc2)n(CCCCCCC(=O)O)c1=O` .
no (0)

Given `O=C(O)CCC(=O)OC[C@@H](NC(=O)C(Cl)Cl)[C@H](O)c1ccc([N+](=O)[O-])cc1` , state the outcome it received in this test.
no (0)

Recorded test call requested for COC(=O)Nc1ccc2ccc3c(NC(=O)OC)ccc4ccc1c2c43 (tested in a mixture with another compound)
no (0)

// outcome(item) with item = `CCOC(=O)C(Br)=P(c1ccccc1)(c1ccccc1)c1ccccc1`
no (0)

Check the results log: what was the call for `COC(=O)c1cc2oc(/C=N\NC(=O)c3cc4oc(C)c(C)c4[nH]3)cc2[nH]1` ?
no (0)

In this assay, the call recorded for `CCSc1nc(-c2cccs2)n2nc(-c3ccco3)cc2n1` was what?
no (0)

Per the assay record, what outcome was assigned to `COc1cc(/C=C/C(=O)c2c(C)n([O-])c3ccccc3[n+]2=O)cc(OC)c1OC` ?
no (0)

What was the test verdict on CC(=O)N1N=C(c2ccc(Nc3ccnc4cc(Cl)ccc34)cc2)CC1c1ccc(Cl)cc1 (stereo unspecified) ?
no (0)

Record lookup: outcome of this test for C/C(=C\CCc1ccoc1)CC/C=C(\C)CCCC1COC(=O)C1 (stereo unspecified) ?
no (0)

Any idea what this test logged for `COc1ccc(-c2cnc(SCC(=O)Nc3ccc(-c4nc5ccccc5s4)cc3)n2-c2ccc(OC)cc2)cc1` ?
no (0)

###

- Test system: RPMI-8226 leukemia
- PROTOCOL_DETAILS: NCI-60 one-dose screen, 48 h
- CONDITIONS: 10 µM unless noted
- Procedure: Growth inhibition of the RPMI-8226 human tumor cell line is measured as a screen for anti-cancer activity. Cells are grown in 96 well plates and exposed to the test compound for 48 hours. Compounds are tested at a single concentration, which is 10^-5 M for most compounds. The reported endpoint is percent growth (GI% or GIPRCNT), where numbers from 0 - 100% represent growth inhibition, and numbers from -100% - 0 represent cell death. For example, a value of 40 represents 60% growth inhibition. […]
The panel holds about 83,000 compounds, 20% with a hit somewhere; the sample as a whole holds those more often. Calls of active or inactive are those of the source. The calls were made as follows: active = growth percent below 10; inactive = the rest.
Give your call using only these classes: y (active), n (inactive)

Some solved entries appear below for comparison.
compound=COc1ccc(OC)c(CCn2cncc2-c2c[nH]c3cc(Br)ccc23)c1 label=n
compound=COC(=O)[C@H](Cc1cn(C)cn1)NC(=O)[C@H](Cc1ccccc1)NC(=O)Nc1cc(C(F)(F)F)cc(C(F)(F)F)c1 label=y
compound=CCOc1cc(CCNS(=O)(=O)c2ccc(C)cc2)c(C(C)=O)cc1OCC label=n
compound=COc1ccc(CNC(=O)c2c(C)n([O-])c3ccc(OC)cc3[n+]2=O)cc1 label=n
compound=Cn1c(=O)c2[nH]c(=S)n(Cc3ccccc3)c2n(C)c1=O label=n

Can you look up the reported call for `NS(=O)(=O)c1cc2c(cc1Cl)NC=NS2(=O)=O` for me?
n

Could you please tell me the result logged for COC(=O)C1=CCC(n2cnc3c(N)ncnc32)O1 (stereo unspecified) in this assay?
n

Identify the outcome logged in this assay for the compound shown: `N/C(=N\C(N)=N\c1nc2ccccc2s1)c1ccnc(Cl)c1`
n

Name the outcome recorded for `Cc1ccc(/C=C/C(=O)c2ccc(F)cc2)s1` in the assay.
n

Recorded call for `CCOC(=O)OCC(=O)[C@@]1(O)CC[C@H]2[C@@H]3CCC4=CC(=O)CC[C@]4(C)[C@H]3[C@@H](O)C[C@@]21C` ?
n

Hi, do you know how `O=Nc1c2cccnc2n2nnc3ccc(Cl)cc3c12` came out in this test?
y

Which result was noted for this compound in the test: `COc1ccc2c(c1)sc1nc(-c3ccc(N(C)C)cc3)cn12`
n

Answer briefly: the call reported for `COc1cnc2c(c1)C(=O)c1c-2n(CCCN2CCOCC2)c(=O)c2cc(F)ccc12` in this assay.
y

Hey, what did the test say about `COc1cc(/C=C/C(=O)c2c(C)n([O-])c3ccccc3[n+]2=O)cc(OC)c1OC` ?
y

How did this test come out for `COc1ccc2c(=O)c(OC)c(-c3cc(OC)c(OC)c(OC)c3)oc2c1` ?
n

Dear colleague, could you share the recorded outcome for `Cc1cnc2nc(-c3ccc(N(C)C)cc3)cn2c1` when you have a moment?
n

Give the logged outcome of this assay for the following compound: `NC(=N\N=C/Cc1ccccc1)/C(N)=N\N=C\Cc1ccccc1`
n

# fetch the recorded call for `FC(F)(F)c1cc(-c2nnc3n2N=C(N2CCCC2)CS3)cc(C(F)(F)F)c1` here
n
